Attribution: patent US9505734B2

# System: Mice
# particulars: mice, 10 mice/group, single intragastric dose 750 mg/kg, within one week
The following compounds are shown together with reported Behaviors after administration with the compound to be tested (deaths) values.
assay readout: Behaviors after administration with the compound to be tested (deaths) (dead)

compound | numeric value
CCc1ccc(Cc2c(Cl)ccc3c2COC32OC(CO)C(O)C(O)C2O)cc1 (centres unmarked) [drawing 266] | 7
OCC1CCC(O)C(c2ccc(Cl)c(Cc3ccc(O[C@H]4CCOC4)cc3)c2)O1 (some centres unmarked) [drawing 306] | 2
CCc1ccc(Cc2c(Cl)ccc3c2COC32OC(C)C(O)C(O)C2O)cc1 (centres unmarked) [drawing 299] | 3
CCc1ccc(Cc2c(Cl)ccc3c2COC32OC(CO)CC(O)C2O)cc1 (centres unmarked) [drawing 298] | 5
Cc1ccc(C2OC(CO)C(O)C(O)C2O)cc1Cc1ccc(-c2ccc(F)cc2)s1 (centres unmarked) [drawing 275] | 9
CCOc1ccc(Cc2cc(C3SC(CO)C(O)CC3O)c(OC)cc2C)cc1 (centres unmarked) [drawing 300] | 0
CCOc1ccc(Cc2cc([C@@]34OC[C@@](CO)(C[C@H](O)[C@H]3O)O4)ccc2Cl)cc1 [drawing 293] | 4
COc1ccc(Cc2cc(C3OC(C)C(O)C(O)C3O)ccc2Cl)cc1 (centres unmarked) [drawing 278] | 7

* * *

# System: Mice
# particulars: mice, 10 mice/group, single intragastric dose 750 mg/kg, within one week
assay readout: Behaviors after administration with the compound to be tested (deaths)

compound | result
CCOc1ccc(Cc2cc(C3CC(O)C(O)C(CO)S3)c(OC)cc2C)cc1 (stereo not drawn) [drawing 291] | 3 dead
OCC1OC(c2ccc(Cl)c(Cc3ccc(O[C@H]4CCOC4)cc3)c2)C(O)CC1O (stereo partly drawn) [drawing 274] | 0 dead
Cc1ccc(C2OC(C)C(O)CC2O)cc1Cc1ccc(-c2ccc(F)cc2)s1 (stereo not drawn) [drawing 305] | 0 dead
CCc1ccc(Cc2c(Cl)ccc3c2COC32CC(O)C(O)C(CO)O2)cc1 (stereo not drawn) [drawing 290] | 2 dead
OCC1OC(c2ccc(F)c(Cc3cc4ccccc4s3)c2)C(O)CC1O (stereo not drawn) [drawing 283] | 0 dead
CCOc1ccc(Cc2cc(C3OC(CO)CC(O)C3O)ccc2Cl)cc1 (stereo not drawn) [drawing 269] | 2 dead
CCc1ccc(Cc2c(Cl)ccc3c2COC32CC(O)CC(CO)O2)cc1 (stereo not drawn) [drawing 296] | 1 dead
CCOc1ccc(Cc2cc(C3SC(CO)C(O)CC3O)c(OC)cc2C)cc1 (stereo not drawn) [drawing 301] | 3 dead
CCOc1ccc(Cc2cc(C3OC(C)CC(O)C3O)ccc2Cl)cc1 (stereo not drawn) [drawing 294] | 1 dead

* * *

# System: Mice
# particulars: mice, 10 mice/group, single intragastric dose 750 mg/kg, within one week
The following compounds are shown together with reported Behaviors after administration with the compound to be tested (deaths) values.
assay readout: Behaviors after administration with the compound to be tested (deaths)

compound | result
CCOc1ccc(Cc2cc(C3CCC(O)C(CO)S3)c(OC)cc2C)cc1 (stereo not shown) [drawing 307] | 0 dead
Cc1ccc(C2OC(CO)CC(O)C2O)cc1Cc1ccc(-c2ccc(F)cc2)s1 (stereo not shown) [drawing 271] | 3 dead
CCOc1ccc(Cc2cc([C@]34OC[C@](CO)(O3)[C@@H](O)C[C@H]4O)ccc2Cl)cc1 [drawing 304] | 3 dead
CCOc1ccc(Cc2cc(C3CC(O)C(O)C(CO)O3)ccc2Cl)cc1 (stereo not shown) [drawing 270] | 2 dead

* * *

# Test system: Mice
# particulars: mice, 10 mice/group, single intragastric dose 750 mg/kg, within one week
The following molecules are shown together with reported Behaviors after administration with the compound to be tested (deaths) values.
assay readout: Behaviors after administration with the compound to be tested (deaths) (dead)

molecule | numeric value
CCOc1ccc(Cc2cc([C@]34OC[C@](C)(O3)[C@@H](O)[C@H](O)[C@H]4O)ccc2Cl)cc1 [drawing 292] | 3
CCCOc1ccc(Cc2cc(C3OC(C)C(O)C(O)C3O)ccc2Cl)cc1 (stereo not shown) [drawing 268] | 6
CC1OC(c2ccc(F)c(Cc3cc4ccccc4s3)c2)CC(O)C1O (stereo not shown) [drawing 295] | 1
CCOc1ccc(Cc2cc(C3OC(CO)C(O)CC3O)ccc2Cl)cc1 (stereo not shown) [drawing 280] | 3

* * *

# Tested on: Mice
# particulars: mice, 10 mice/group, single intragastric dose 750 mg/kg, within one week
assay readout: Behaviors after administration with the compound to be tested (deaths) (dead)

compound | numeric value
Cc1ccc(C2OC(C)C(O)C(O)C2O)cc1Cc1ccc(-c2ccc(F)cc2)s1 (centres unmarked) [drawing 281] | 4
CCOc1ccc(Cc2cc(C3OC(C)C(O)C(O)C3O)ccc2Cl)cc1 (centres unmarked) [drawing 279] | 1
Cc1ccc(C2OC(CO)C(O)CC2O)cc1Cc1ccc(-c2ccc(F)cc2)s1 (centres unmarked) [drawing 282] | 3
CCOc1ccc(Cc2cc([C@]34OC[C@](CO)(O3)[C@@H](O)[C@H](O)[C@H]4O)ccc2Cl)cc1 [drawing 267] | 9
CCOc1ccc(Cc2cc(C3SC(C)C(O)C(O)C3O)c(OC)cc2C)cc1 (centres unmarked) [drawing 302] | 4

* * *

# Test system: Mice;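 also: mice weighing 18–20 g, both sexes in equal proportion within each group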
# particulars: mice, 10 mice/group, single intragastric dose 750 mg/kg, within one week
The following compounds are shown together with reported Behaviors after administration with the compound to be tested (deaths) values.
assay readout: Behaviors after administration with the compound to be tested (deaths) (dead)

compound | numeric value
CCOc1ccc(Cc2cc([C@]34C[C@@H](O)[C@H](O)[C@](CO)(CO3)O4)ccc2Cl)cc1 [drawing 303] | 2
CCc1ccc(Cc2c(Cl)ccc3c2COC32OC(CO)C(O)CC2O)cc1 (stereo not shown) [drawing 288] | 5
CC1OC(c2ccc(F)c(Cc3cc4ccccc4s3)c2)C(O)C(O)C1O (stereo not shown) [drawing 273] | 2
OCC1CC(O)C(O)C(c2ccc(F)c(Cc3cc4ccccc4s3)c2)O1 (stereo not shown) [drawing 284] | 1
